The reported numbers originate from patent US20260042753A1.

target: mutant cKIT (560-576 and V654A) in GIST430/654 cell line (Homo sapiens (Human), UniProt P10721, DEL560-576/V654A); assay: Cellular testing of cKIT mutant inhibitors: phospho-Y307-cKIT Luminex assay in GIST430/654 cells; format: cell-based; conditions: Table 1; cKIT autophosphorylation, compounds 45 min; read-out: GIST 430/654 IC50
Sequence (P10721 other isoform, or with tags, fused parts or gaps V654A/del 1-25/del 560-576 limits assumed): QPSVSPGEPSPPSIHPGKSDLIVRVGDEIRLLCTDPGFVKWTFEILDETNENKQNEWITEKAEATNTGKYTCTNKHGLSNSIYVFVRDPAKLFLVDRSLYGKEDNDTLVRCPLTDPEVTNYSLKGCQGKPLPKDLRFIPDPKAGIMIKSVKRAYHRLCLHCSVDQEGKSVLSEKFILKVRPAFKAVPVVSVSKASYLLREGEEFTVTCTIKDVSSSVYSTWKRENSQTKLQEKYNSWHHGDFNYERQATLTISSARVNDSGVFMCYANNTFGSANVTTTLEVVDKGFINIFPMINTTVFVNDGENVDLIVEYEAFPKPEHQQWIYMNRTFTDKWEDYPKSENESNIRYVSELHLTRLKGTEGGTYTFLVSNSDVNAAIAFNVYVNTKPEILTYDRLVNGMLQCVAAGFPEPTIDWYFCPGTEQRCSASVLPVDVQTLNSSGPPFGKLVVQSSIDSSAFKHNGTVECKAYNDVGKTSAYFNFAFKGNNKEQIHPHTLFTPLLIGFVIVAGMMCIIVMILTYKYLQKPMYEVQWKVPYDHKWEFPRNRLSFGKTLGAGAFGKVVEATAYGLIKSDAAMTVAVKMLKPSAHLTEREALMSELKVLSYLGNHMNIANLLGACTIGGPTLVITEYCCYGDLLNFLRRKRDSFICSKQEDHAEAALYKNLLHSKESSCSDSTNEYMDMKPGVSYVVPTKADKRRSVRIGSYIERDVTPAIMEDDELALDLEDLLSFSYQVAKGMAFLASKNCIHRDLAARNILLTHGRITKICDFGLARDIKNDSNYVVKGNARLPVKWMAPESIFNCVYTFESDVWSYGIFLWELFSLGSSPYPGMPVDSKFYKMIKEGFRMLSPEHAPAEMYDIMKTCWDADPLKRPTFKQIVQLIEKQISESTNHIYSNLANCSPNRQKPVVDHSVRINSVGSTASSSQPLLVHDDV
resultType: IC50 (nM)
Only the number, expressed in nM, is required.

1) COCCOc1cc2[nH]nc(-c3cc(-c4ccc(C(=O)N5CCN(C)CC5)cc4)no3)c2cc1F    120

Complete the entry with IC50 for CNCC1CCCN1C(=O)c1ccc(-c2cc(-c3n[nH]c4cc(OCCOC)c(F)cc34)on2)cc1 (stereo not shown) 110

Specify measured IC50 for COCCOc1cc2[nH]nc(-c3cc(-c4cccc(C(=O)N(C)C)c4)no3)c2cc1F . 340

# return recorded IC50 for entry COCCOc1cc2[nH]nc(-c3cc(-c4ccc(N5CCOCC5=O)cc4)no3)c2cc1F 68

* * *

target: mutant cKIT (560-576 and V654A) in GIST430/654 cell line (Homo sapiens (Human), UniProt P10721, DEL560-576/V654A); test: Cellular testing of cKIT mutant inhibitors: phospho-Y307-cKIT Luminex assay in GIST430/654 cells; assay type: cell-based; settings: Table 2, corresponding triazole derivatives; read-out: GIST 430/654 IC50
resultType: IC50 (nM)
Express your answer in nM, writing the number without its unit.

1) COCCOc1cc2[nH]nc(-c3cn(-c4ccc(C(=O)N5CC(F)C5)cc4)nn3)c2cc1F [reference compound]    580

Identify IC50 associated with the compound COCCOc1cc2[nH]nc(-c3cn(-c4ccc(C(=O)N5CC(C#N)C5)cc4)nn3)c2cc1F [reference compound] 2200

Determine its reported IC50: COCCOc1cc2[nH]nc(-c3cn(-c4ccc(C(=O)N5Cc6ccncc6C5)cc4)nn3)c2cc1F [reference compound] 140

Supply IC50 value. Item: COCCOc1cc2[nH]nc(-c3cn(-c4ccc(C(=O)N5CCN(C6COC6)CC5)cc4)nn3)c2cc1F [reference compound] 790

* * *

target: mutant cKIT (560-576 and V654A) in GIST430/654 cell line (Homo sapiens (Human), UniProt P10721, DEL560-576/V654A); assay: Cellular testing of cKIT mutant inhibitors: phospho-Y307-cKIT Luminex assay in GIST430/654 cells; format: cell-based; conditions: Table 1; cKIT autophosphorylation, compounds 45 min; read-out: GIST 430/654 IC50
Examples of compounds with documented pIC50 follow.
Units for pIC50: none; it is -log10 of a concentration expressed in mol/L.

Recorded results for 4 compounds are shown here.
1. COCCOc1cc2[nH]nc(-c3cc(-c4ccc(C(=O)N5CCN(C6COC6)CC5)cc4)no3)c2cc1Cl [A194]    7.36
2. COCCOc1cc2[nH]nc(-c3cc(-c4ccc(C(=O)N5C[C@H]6COCC[C@H]6C5)cc4)no3)c2cc1F (relative stereo) [A214]    7.43
3. COCCOc1cc2[nH]nc(-c3cc(-c4ccc(C(=O)N(C)CCS(C)(=O)=O)cc4)no3)c2cc1F [A150]    6.96
4. COCCOc1cc2[nH]nc(-c3cc(-c4ccc(C(=O)N5CC6(CCOC6)C5)cc4)no3)c2cc1F [A77]    7.33

Fill in pIC50 for record COCCOc1cc2[nH]nc(-c3cc(-c4ccc(C(=O)N5CCN(C6COC6)CC5)cc4)no3)c2cc1F [A45] 7.23

Give the value of pIC50 reported for the following: COCCOc1cc2[nH]nc(-c3cc(-c4ccc(C(=O)N5CCC[C@H]5CNS(C)(=O)=O)cc4)no3)c2cc1F [A90] 6.92

Check the records and state pIC50 for COCCOc1cc2[nH]nc(-c3cc(-c4ccc(C(=O)N5CCCOCC5)cc4)no3)c2cc1F [A44] 7.39
